Taken from the supplement of paper PMC10567573.

B1: PTPRD (parent)
chain: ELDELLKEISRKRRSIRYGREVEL

Variants of: B1
Experiment: protein stability index of a GFP-peptide fusion (GPS, HEK-293T) (PSI 1-6); higher = more stable;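 further: lentivirally expressed fusions sorted by FACS into six bins by GFP to DsRed ratio, PSI derived from sequencing read proportions per bin multiplied by bin number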
Settings: c terminus: a fixed tail appended
QUANTITY NAME: protein stability index
Simply state the number, no unit and no words.

# VARIANT IDENTIFIER, protein stability index
data = [
    ("L2P", 3.47),
    ("S10G", 2.44),
    ("E1H", 2.47),
    ("R17E", 2.64),
    ("R14S", 2.9),
]

Read off the recorded protein stability index for "V22E"
3.18

Answer with the recorded protein stability index of "L5E" only.
4.15

Supply recorded protein stability index for "L5S" here.
3.6

Hello, please tell me recorded protein stability index for this one: "Y18D"
2.6

For the variant "V22W" , give its reported protein stability index.
2.39

Write down protein stability index measured for item "R11N"
2.34
